Origin of measurements: patent US20220195070A1

Target: T1, Anti-IL-8 Antibody
T1 construct: also called anti-human IL-8 antibody; Fc-Mutated Antibody
T1 sequence (constant, as listed by the source limits assumed): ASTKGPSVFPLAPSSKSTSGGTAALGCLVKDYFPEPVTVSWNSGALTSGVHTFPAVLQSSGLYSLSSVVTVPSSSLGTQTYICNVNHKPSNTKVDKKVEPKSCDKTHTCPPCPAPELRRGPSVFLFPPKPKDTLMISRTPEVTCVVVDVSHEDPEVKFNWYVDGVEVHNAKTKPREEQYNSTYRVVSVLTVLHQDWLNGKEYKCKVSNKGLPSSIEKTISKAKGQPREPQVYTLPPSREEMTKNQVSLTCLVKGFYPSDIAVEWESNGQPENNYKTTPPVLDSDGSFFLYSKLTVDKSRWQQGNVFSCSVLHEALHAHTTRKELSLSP
Assay: SPR (Biacore T200), 25 C, pH 7.4; SKA antibody captured by anti-rabbit IgG, Anti-IL-8 Antibody injected 0-800 nM
In this section we review reported kon values for a set of binders.
A number alone suffices; assume M⁻¹ s⁻¹.

**Q:** For the binder SKA0127 (antibody, V domains shown, Recombinant rabbit monoclonal from B-cell cloning, expressed in FreeStyle 293-F cells; the first screen used B-cell culture supernatant; also called Anti-SG115 Antibody; rabbit Anti Fc-Mutation Antibody) VH: QSVEESGGRLVTPGTPLTLTCTVSGIDLSTYAMTWVRQAPGKGLEYIGYINGGGSAYYASWVNGRFTISKTSTTADLKITSPTTEDTATYFCARGPVGSYHRIWGPGTLVTVSS VL: ALVMTQTPSSVSEPVGGTVTINCRASEDIESYLAWYQQKPGQPPKLLIYATSNLETGVPSRFKGSGSGTDYTLTISGVQCADAATYYCQGYYELSSIDNNAFGGGTEVVVKG , report kon.
**A:** 17700

**Q:** For the binder SKA0016 (antibody, V domains shown, Recombinant rabbit monoclonal from B-cell cloning, expressed in FreeStyle 293-F cells; the first screen used B-cell culture supernatant; also called Anti-SG115 Antibody; rabbit Anti Fc-Mutation Antibody) VH: QEQLVESGGGLVQPEGSLTLTCTASGFSFSSSDYMCWVRQAPGKGLEWIACIYIGSNGDTFYASWAKGRFTISKTSSTTVTLQMTSLTAADTATYFCARDSRRADDYGTRLDLWGQGTLVTVSS VL: DIVMTQTPSSVSAAVGGTVTIKCQASQNIYRNLAWYQQKPGQPPKLLIYQASKLESGVPSRFKGSGSGTEFTLTISDLDCDDAASYYCQSISYISSGDTFFWAFGGGTEVVVKG , report kon.
**A:** 11800

**Q:** For the binder SKA0046 (antibody, V domains shown, Recombinant rabbit monoclonal from B-cell cloning, expressed in FreeStyle 293-F cells; the first screen used B-cell culture supernatant; also called Anti-SG115 Antibody; rabbit Anti Fc-Mutation Antibody) VH: QEQLVESGGGLVQPEGSLTLTCTASGFSLSSSNYMWWVRQAPGKGLEWIACIHASSSGDTYYANWAKGRFTISKTSSTTVTLQMTSLTAADTATYFCARGGYIYGDGGYNGVAGFSLWGPGTLVTVSS VL: DVVMTQTPASVSEPVGGTVTIKCQASETIGNALAWYQQKPGQRPKLLIYGASNLESGVPSRFKGSGSGTEFTLTISDVQCDDAATYYCQSIYYSSSADTFFFPFGGGTEVVVKG , report kon.
**A:** 42000

**Q:** For the binder SKA0009 (antibody, V domains shown, Recombinant rabbit monoclonal from B-cell cloning, expressed in FreeStyle 293-F cells; the first screen used B-cell culture supernatant; also called Anti-SG115 Antibody; rabbit Anti Fc-Mutation Antibody) VH: QSVEESGGRLVTPGTSLTLTCTVSGIDLSSYGMGWVRQAPGMGLEYIGIIYAAGRTYYASWVKGRFIISKTSTTVDLEMTSLTTEDTATYFCARHGSWYAGMDLWGPGTLVTVSS VL: AIEMTQTPSPVSAAVGGTVSINCQASEDIENYFAWYQQKPGQPPKLLIYDASELASGVPSRFSGSGSGTDFTLTISGVQCDDAATYYCQHADYAASSENTFGGGTEVVVKG , report kon.
**A:** 25000

**Q:** For the binder SKA0052 (antibody, V domains shown, Recombinant rabbit monoclonal from B-cell cloning, expressed in FreeStyle 293-F cells; the first screen used B-cell culture supernatant; also called Anti-SG115 Antibody; rabbit Anti Fc-Mutation Antibody) VH: QSLEESGGDLVKSGASLTLTCTASGFSFSSSYYMCWVRQAPGKGLEWIACIYTGSNGDTYYASWANGRFTISKASSTTVTLQMTSLTAADTATYFCARYTYDDDGDYTSFNLWGPGTLVTVSS VL: ALVMTQTPSSVSADVGGTVTINCQASQNIYRNLAWYQQKPGQRPKLLIYGASNLEPGVPSRFKGSGSGTEFTLTISDLECDDAATYYCQSVGYSGSVDTFFYAFGGGTEVVVKG , report kon.
**A:** 91700

**Q:** For the binder SKA0054 (antibody, V domains shown, Recombinant rabbit monoclonal from B-cell cloning, expressed in FreeStyle 293-F cells; the first screen used B-cell culture supernatant; also called Anti-SG115 Antibody; rabbit Anti Fc-Mutation Antibody) VH: QSLEESGGGLVQPEGSLTLTCTASGFSFSSSFWICWVRQAPGKGLEWLACIDAGSSDNTYYANWAKGRFTISKTSSTTVTLQMTSLTDADTATYFCARDRDAAGDAGYGYATSFNLWGPGTLVTVSS VL: AIDMTQTPSSVSAAVGGTVTINCQASESIYSNLAWYQQKPGQRPKLLIYLASTLASGVPSRFKGSGSGTEFTLTISDLECADAATYYCQSVYYDSRGDTFFWAFGGGTEVVVKG , report kon.
**A:** 9980
